Target chain: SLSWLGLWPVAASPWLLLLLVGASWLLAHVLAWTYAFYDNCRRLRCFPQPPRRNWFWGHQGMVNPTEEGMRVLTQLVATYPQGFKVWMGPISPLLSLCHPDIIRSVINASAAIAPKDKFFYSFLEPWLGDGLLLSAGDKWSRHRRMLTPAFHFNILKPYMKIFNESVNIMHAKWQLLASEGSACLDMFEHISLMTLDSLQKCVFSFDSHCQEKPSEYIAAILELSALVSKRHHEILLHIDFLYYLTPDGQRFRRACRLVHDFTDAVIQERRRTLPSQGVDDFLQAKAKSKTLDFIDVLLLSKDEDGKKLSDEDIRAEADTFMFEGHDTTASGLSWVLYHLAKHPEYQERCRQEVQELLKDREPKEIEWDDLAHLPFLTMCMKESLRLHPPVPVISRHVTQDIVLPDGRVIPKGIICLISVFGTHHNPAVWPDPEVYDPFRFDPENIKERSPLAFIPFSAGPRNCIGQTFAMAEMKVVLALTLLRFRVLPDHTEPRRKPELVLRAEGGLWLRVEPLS
Assign a class from recorded IC50; defined classes: Low: < 40 nM; Mid: ≥ 40 nM and < 200 nM; High: ≥ 200 nM

CCOC(=O)NCCC(=O)N1CCC[C@@H](COc2ccc(-c3ccn[nH]3)nc2)C1	Mid
Clc1ccc(COc2ccc(-c3ccn[nH]3)nc2)cc1	Low
CC(=O)N[C@H]1CC[C@@H](COc2ccc(-c3ccn[nH]3)nc2)CC1	Mid
CC(C)OC(=O)N1CCC(CCOc2ccc(-c3ccn[nH]3)nc2)CC1	Mid
CS(=O)(=O)c1cccc(COc2cnc(-c3ccn[nH]3)c(F)c2)c1	Mid

Sort into band: "CS(=O)(=O)c1cccc(COc2ccc(-c3[nH]ncc3C(=O)NC3CC3)nc2)c1"
High

Bin this entry: "O=C(CCN1CCCS1(=O)=O)N1CCC[C@@H](COc2ccc(-c3ccn[nH]3)nc2)C1"
High

Band for the recorded IC50 of "CC(=O)Nc1cc(COc2ccc(-c3ccn[nH]3)nc2)ccn1" ?
High

Pick a category. Item: "Nc1cccc(COc2ccc(-c3ccn[nH]3)nc2)c1"
Mid
